- TEST: In vitro human microsomal stability assay
- Type: in vitro ADME
- TEST CONTEXT: human, 0.5 h, 0.5 μM, pH 7.4
READOUT TYPE: HUMAN MICROSOMAL STABILITY (% REMAINING AFTER 30 MINUTES) (%)

These solved cases illustrate the format of a correct answer.
MOLECULE	RECORDED NUMBER
OC(c1ccccn1)C1(C2CCc3ccccc32)CCC1 (stereo not shown) [Example 55]	1.6
CC(C)(C)OC(=O)N1CCC(C2(C(O)c3ccccn3)CCC2)CC1 (stereo not shown) [Example 279]	22
Cc1cccnc1[C@@H](O)C1(c2ccc(Cl)c(Cl)c2)CCC1 [Example 30]	1.5
OC1CC(c2cccc(OC(F)(F)F)c2)(C(O)c2ccccn2)C1 (stereo not shown) [Example 273]	42
OC(c1ccccn1)C1(c2ccc(Cl)c(Cl)c2)CCCCC1 (stereo not shown) [Example 43]	1.8

A. O[C@@H](c1ccccn1)C1(c2cc(C(F)(F)F)ccn2)CC(F)(F)C1 [Example 125]
B. COc1ccnc(C(O)C2(c3ccc(Cl)c(Cl)c3)CCC2)c1 (stereo not shown) [Example 289]
C. OC(c1ccccn1)C1(c2ccc(F)cc2)CCC1 (stereo not shown) [Example 3]
Qu. Arrange the 3 molecules by rising HUMAN MICROSOMAL STABILITY (% REMAINING AFTER 30 MINUTES), starting with the smallest. # answer = labels listed in requested order
Ans. B, C, A
(B: 4.2%, C: 28%, A: 53%)

====

- TEST: In vitro human microsomal stability assay
- Format: in vitro ADME
- TEST CONTEXT: human, 0.5 h, 0.5 μM, pH 7.4
READOUT TYPE: HUMAN MICROSOMAL STABILITY (% REMAINING AFTER 30 MINUTES) (%)

P. OC(c1ccccn1)C1(c2ccc(C(F)(F)F)cc2)CCCO1 (centres unmarked) [Example 88]
Q. N[C@H]1CCC[C@H]1[C@H](O)C1(c2ccc(Cl)c(Cl)c2)CCC1 [Example 217]
Qu. Kindly identify which of P and Q has the larger recorded HUMAN MICROSOMAL STABILITY (% REMAINING AFTER 30 MINUTES) value. Reply briefly: the label of your chosen item.
Ans. Q

====

- TEST: In vitro rat microsomal stability assay
- Type: in vitro ADME, rat (Sprague-Dawley)
- TEST CONTEXT: Sprague-Dawley, rat, 0.5 h, 0.5 μM, pH 7.4
READOUT TYPE: RAT MICROSOMAL STABILITY (% REMAINING AFTER 30 MINUTES) (%)

COMPOUND	UNIT ABBREVIATION	RECORDED NUMBER
OC(c1ccccn1)C1(c2ccccn2)CCC1 (centres unmarked)	%	76
O[C@H](c1ccccn1)C1(c2cccc(C(F)(F)F)n2)CCC1	%	21
OC(c1ccccn1)C1(c2nc3ccc(Cl)cc3s2)CCC1 (centres unmarked)	%	5.4

I. CC(c1ccccc1Cl)C1(C(O)c2ccccn2)CCC1 (centres unmarked)
II. O=C1CC(c2cccc(OC(F)(F)F)c2)(C(O)c2ccccn2)C1 (centres unmarked)
III. CC1(O)CC(c2cccc(C(F)(F)F)c2)(C(O)c2ccccn2)C1 (centres unmarked) [Example 244]
IV. O[C@@H](c1ccccn1)C1(c2cc(C(F)(F)F)ccn2)CCC1
V. OC(c1ccccn1)C1(c2ccc(Oc3ccccc3)cc2)CCC1 (centres unmarked)
Qu. Arrange the 5 compounds by rising RAT MICROSOMAL STABILITY (% REMAINING AFTER 30 MINUTES), starting with the smallest. # answer = labels listed in requested order
Ans. I, V, IV, II, III
(I: 0.18%, V: 17%, IV: 26%, II: 50%, III: 77%)

P. OC(c1ccccn1)C1(c2ccccc2OC(F)(F)F)CCCO1 (centres unmarked) [Example 97]
Q. OC1CC(c2ccnc(C(F)(F)F)c2)(C(O)c2ccccn2)C1 (centres unmarked) [Example 305]
R. OC(c1ccccn1)C1(c2ccc(Cl)c(Cl)c2)COC1 (centres unmarked)
S. OC(c1ccccn1)C1(c2ccc(OC(F)(F)F)cc2)CCCO1 (centres unmarked) [Example 94]
Qu. Arrange the 4 compounds by rising RAT MICROSOMAL STABILITY (% REMAINING AFTER 30 MINUTES), starting with the smallest. # answer = labels listed in requested order
Ans. P, S, R, Q
(P: 0.16%, S: 3.8%, R: 8.6%, Q: 49%)

I. OC1CC(c2ccc(Cl)c(Cl)c2)(C(O)c2ccccn2)C1 (single isomer, unassigned) [Example 118]
II. O[C@H](c1ncccn1)C1(c2ccc(Cl)c(Cl)c2)CCC1
III. O[C@H](c1ccccn1)C1(c2ccc(Cl)c(Cl)c2)CC1
IV. OC(c1ccccn1)C1(c2ccc(F)c(F)c2)CCCO1 (centres unmarked) [Example 109]
V. OC(c1ccccn1)C1(c2ccc(Cl)c(Cl)c2)CCCCC1 (centres unmarked)
Qu. Sort the 5 compounds by RAT MICROSOMAL STABILITY (% REMAINING AFTER 30 MINUTES); largest first, smallest last. # answer = labels listed in requested order
Ans. I, III, II, IV, V

====

- TEST: In vitro human microsomal stability assay
- Assay type: in vitro ADME
- TEST CONTEXT: human, 0.5 h, 0.5 μM, pH 7.4
READOUT TYPE: HUMAN MICROSOMAL STABILITY (% REMAINING AFTER 30 MINUTES) (%)

COMPOUND	RECORDED NUMBER
CC1(O)CC(c2ccc(OC(F)(F)F)cc2)(C(O)c2ccccn2)C1 (single isomer, unassigned) [Example 134]	78
OC(c1ccccn1)C1(c2cccnc2)CCC1 (stereo not drawn)	80
COC1(OC)CC(c2ccc(OC(F)(F)F)cc2)(C(O)c2ccccn2)C1 (stereo not drawn)	46
OC(c1ccccn1)C1(c2ccc(C(F)(F)F)nc2)CCC1 (stereo not drawn)	82

1. Cc1cccc(C2(C(O)c3ccccn3)CCC2)c1 (stereo not drawn)
2. O[C@H](c1ccccn1)[C@]1(c2ccc(Cl)c(Cl)c2)CCO1
Qu. Kindly identify which of 1 and 2 has the larger recorded HUMAN MICROSOMAL STABILITY (% REMAINING AFTER 30 MINUTES) value. Reply briefly: the label of your chosen item.
Ans. 2
(2: 24%, 1: 0.13%)

A. OC1CC(c2ccc(C(F)(F)F)cc2)(C(O)c2ccccn2)C1 (stereo not drawn) [Example 201]
B. O[C@H](c1ccccn1)C1(c2ccnc(C(F)(F)F)c2)CCC1
Qu. Pick one: A or B . Which one has the lower reported HUMAN MICROSOMAL STABILITY (% REMAINING AFTER 30 MINUTES)? Reply briefly: the label of your chosen item.
Ans. B

====

- TEST: In vitro human microsomal stability assay
- Assay type: in vitro ADME
- TEST CONTEXT: human, 0.5 h, 0.5 μM, pH 7.4
READOUT TYPE: HUMAN MICROSOMAL STABILITY (% REMAINING AFTER 30 MINUTES) (%)

MOLECULE	UNIT ABBREVIATION	RECORDED NUMBER
OC(c1ccccn1)C1(c2cccc(Cl)c2)CCCO1 (stereo not drawn) [Example 104]	%	15
OC(c1ccccn1)C1(c2ccc(Cl)c(C(F)(F)F)c2)CC(F)(F)C1 (stereo not drawn) [Example 138]	%	41
O=C1CC(c2cccc(OC(F)(F)F)c2)([C@@H](O)c2ccccn2)C1 [Example 257]	%	42

A. OC(c1ccccn1)C1(c2ccc(Cl)c(Cl)c2)CCCO1 (stereo not drawn) [Example 98]
B. OC(c1ccccn1)C1(c2ccc(F)c(C(F)(F)F)c2)CC(F)(F)C1 (stereo not drawn) [Example 139]
C. OC(c1ccccn1)C1(c2cccc(C(F)(F)F)n2)CCC1 (stereo not drawn) [Example 234]
D. O=C1CC(c2cccc(C(F)(F)F)c2)([C@H](O)c2ccccn2)C1 [Example 241]
Qu. Sort the 4 molecules by HUMAN MICROSOMAL STABILITY (% REMAINING AFTER 30 MINUTES); largest first, smallest last. # answer = labels listed in requested order
Ans. D, B, C, A

====

- TEST: In vitro human microsomal stability assay
- Type: in vitro ADME
- TEST CONTEXT: human, 0.5 h, 0.5 μM, pH 7.4
READOUT TYPE: HUMAN MICROSOMAL STABILITY (% REMAINING AFTER 30 MINUTES) (%)

These solved cases illustrate the format of a correct answer.
MOLECULE	UNIT ABBREVIATION	RECORDED NUMBER
Cc1ccc(CC2(C(O)c3ccccn3)CCC2)cc1 (stereo not shown)	%	1.7
Nc1cccnc1C(O)C1(c2ccc(Cl)c(Cl)c2)CCC1 (stereo not shown)	%	4.0
Cc1ccccc1CC1(C(O)c2ccccn2)CCC1 (stereo not shown)	%	0.21
OC(c1ccccn1)C1(c2ccc(C(F)(F)F)c(F)c2)CCC1 (stereo not shown)	%	21

A. O[C@@H](c1ccccn1)C1(c2cc(C(F)(F)F)ccn2)CCC1
B. Nc1cccnc1C(O)C1(c2cccc(C(F)(F)F)c2)CCC1 (stereo not shown)
C. Cn1c(C2(C(O)c3ccccn3)CCC2)nc2ccccc21 (stereo not shown)
D. O[C@H](c1ccccn1)C1(c2ccc(C(F)(F)F)c(F)c2)CCC1
Qu. Arrange the 4 molecules by rising HUMAN MICROSOMAL STABILITY (% REMAINING AFTER 30 MINUTES), starting with the smallest. # answer = labels listed in requested order
Ans. B, D, A, C
(B: 1.6%, D: 5.3%, A: 28%, C: 67%)

Values from patent US8772500B2
